tested on: Aβ40 (Homo sapiens)
Sequence (P05067 672-711 limits assumed, species assumed): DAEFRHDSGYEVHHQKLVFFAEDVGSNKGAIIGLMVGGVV
test name: kinetic ThT assay for Aβ aggregation
Format: biochemical
cond: compound 20 μM; DMSO control at 80 hr = 0% inhibition; parenthesis = compound 1027; read-out: % inhib. A β 40 (20 μM)
Protocol: Aβ40 (1.0 mg) was pre-treated in a 1.5 mL microfuge tube with HFIP (1 mL) and sonicated for 20 min to disassemble any pre-formed Aβ aggregates. The HFIP was removed with a stream of argon and the Aβ dissolved in Tris base (5.8 mL, 20 mM, pH˜10). […] The kinetic ThT assay for AP aggregation is similar to that of Chalifour et al (Chalifour et al, 2003, J. Biol. Chem. 278:34874-81). […] Plates were covered with clear polystyrene lids and incubated at 37° C. in a Tecan Genios microplate reader. […]
measure name: inhibition at 20 µM (%)

OC1CN(c2cc(-c3cccc(C(O)C(F)(F)F)c3)cc3nonc23)C1 (stereo not drawn) [TRV-1406] ... 83
COC1CN(c2cc(-c3cccc(C(O)C(F)(F)F)c3)cc3nonc23)C1 (stereo not drawn) [TRV-1403] ... 81
CN(Cc1ccc(F)cc1)c1cc(C(=O)C(F)(F)F)cc2nonc12 [TRV-1417] ... 75
CN(Cc1ccc(F)cc1)c1cc(/C=C/C(O)(C(F)(F)F)C(F)(F)F)cc2nonc12 [TRV-1400] ... 80
OC1(c2cc(N3Cc4ccccc4C3)c3nonc3c2)COC1 [TRV-1419] ... 55
CN(Cc1ccc(F)cc1)c1cc(C(O)C(F)(F)F)cc2nonc12 (stereo not drawn) [TRV-1397] ... 61
OC(c1cccc(-c2cc(N3Cc4ccccc4C3)c3nonc3c2)c1)C(F)(F)F (stereo not drawn) [TRV-1401] ... 58
CC(=O)c1cc(N(C)Cc2ccc(F)cc2)c2nonc2c1 [TRV-1418] ... 55
CN(Cc1cccnc1)c1cc(-c2cccc(C(O)C(F)(F)F)c2)cc2nonc12 (stereo not drawn) [TRV-1413] ... 61.3

====

tested on: Aβ40 (Homo sapiens)
test name: kinetic ThT assay for Aβ aggregation
Type: biochemical
cond: 80 h, compound 5 μm; DMSO control at 80 hr = 0% inhibition; parenthesis = compound 1027; read-out: % inhib Aβ 40 (5 μm)
measure name: inhibition at 5 µM (%)

Would you please look over these solved cases?
COC1CN(c2cc(-c3cccc(C(O)C(F)(F)F)c3)cc3nonc23)C1 (centres unmarked) ... 51
C#CCN(C)c1cc(-c2cccc(C(O)C(F)(F)F)c2)cc2nonc12 (centres unmarked) ... 39

(P) CC(C)(O)C1CN(c2cc(-c3cccc(C(O)C(F)(F)F)c3)cc3nonc23)C1 (centres unmarked)
(Q) CN(Cc1ccc(F)cc1)c1cc(-c2cccc(C(=O)N3CCCC3)c2)cc2nonc12
Smaller inhibition at 5 µM value, P vs Q ? Please respond with the label that marks your chosen entry.
Q
(Q: 36%, P: 52%)

====

tested on: Aβ40 (Homo sapiens)
test name: kinetic ThT assay for Aβ aggregation
Type: biochemical
cond: compound 20 μM; DMSO control at 80 hr = 0% inhibition; parenthesis = compound 1027; read-out: % inhib. A β 40 (20 μM)
measure name: inhibition at 20 µM (%)

CN(Cc1ccccc1)c1cc(C(O)C(F)(F)F)cc2nonc12 (stereo not drawn) [TRV-1392] ... 69
CN(c1cc(-c2cccc(C(O)C(F)(F)F)c2)cc2nonc12)C1CC1 (stereo not drawn) [TRV-1405] ... 76
CN(Cc1ccc(F)cc1)c1cc(/C=C/CO)cc2nonc12 [TRV-1409] ... 69

The measurements presented in this section are drawn from patent US9328078B2.
